Values compiled from the domain aggregation screens of Martell et al. (2025).

Test: soluble fraction after stress (log2 fold change); higher = more stays soluble; pooled small domains, quantitative proteomics
Conditions: stress: pH 4
Consider the following sequences and their measured soluble fraction (log2) readings.
Enter the number alone.

// known answers, use as guide
>  <Seq Text>
HMNPTLPYGFAKRHGVILLEAGEVAVVGLREGADPAALIETRRALGRPLRVEPLDQATFDRRLSQVYA

>  <soluble fraction (log2)>
-0.15

$$$$
>  <Seq Text>
HMQEPVYRPVFPGMTDADRQSAMEALKEGGFSPRLNRQTGQLEVDASGYHEAKIYLASQGIPAE

>  <soluble fraction (log2)>
0.22

$$$$
>  <Seq Text>
HMNPSAFSEYSFELLQSALLKKKIDENLSNQTIARDAGVSEAFVQKVLTNNVKRPSVKNRVRMISYLGLD

>  <soluble fraction (log2)>
0.00228

$$$$
>  <Seq Text>
HMNHYIGVDRAKEIALNHANLSETDVVFTKEKLENDDGGAEYEIEFHSGRTEYDYTIDAASGNIIEYDVDY

>  <soluble fraction (log2)>
-0.17

$$$$
>  <Seq Text>
HMKEKQLMTLDDDLYAFLLKHPGIIQKDIYNHFPYDIKGVIADTLYAWDKTGKIKRTKSGNSYIIYT

>  <soluble fraction (log2)>
-0.141

$$$$

Q: soluble fraction (log2) lookup needed for HMELTVPDFTNMSLEDAINLAEKRDVRLEVTDSVFVKRLGRGFIYSQNPVAGSKVKKGRRILITINAIN , thanks.
Ans: 0.113

Q: soluble fraction (log2) lookup needed for HMSVSTGTITGSVVNLREEPNTSSKVLDKLPKDTVVYVLSASGEWYNVSYGDKTGWVYGEYLA , thanks.
Ans: -0.478

Q: soluble fraction (log2) lookup needed for HMLGSGSKEQQLVILNNILERQVQAFNLQGGQEYPMVTLKNFYNTLSKMIENAGLKNVENYFVNPDVGKQM , thanks.
Ans: -0.0872

Q: soluble fraction (log2) lookup needed for HMSVTSEIGAKIKYFRKSKHFSLQEMADLLYKSKSTLSKYENGQISIDIETLYAIAKVLGVHVEQLLYSEP , thanks.
Ans: 0.222

Q: soluble fraction (log2) lookup needed for HMKPLRPVHLEIQTHRLSPVGILRSSFRQAGKVMHSNHGRITGLNLEQLKLIQAAFAGEALPK , thanks.
Ans: 0.0473

###

Test: soluble fraction after stress (log2 fold change); higher = more stays soluble; pooled small domains, quantitative proteomics
Conditions: stress: pH 4
Consider the following sequences and their measured soluble fraction (log2) readings.
Enter the number alone.

>  <Seq Text>
HMGTWKKIGTMTATVNDLYVRETPNGYIMGFINKGTVVEVDGKTTGKWTHAKVEGIGVGWIWTGYLDK

>  <Property>
soluble fraction (log2)

>  <Reading>
0.161

$$$$
>  <Seq Text>
HMGSEYPSNPLASRWAKGVRLYHDEWGYGVIQAARGSEPDDYVITVRFESGAEKSFLPKFQAHSLMIVKD

>  <Property>
soluble fraction (log2)

>  <Reading>
-0.974

$$$$
>  <Seq Text>
HMQNKFLDIVGEIEVKAVDYYLLKDTSGLVIKFPKNLVFANGLKIADNKIGLTVSLYGAWVHEET

>  <Property>
soluble fraction (log2)

>  <Reading>
-0.498

$$$$
>  <Seq Text>
HMRLLGEPLAGRLKKDVPVVTGRSTESKAIAQFFELRWSHLPDPEARTISVASGRIDFMDVGATRFSLR

>  <Property>
soluble fraction (log2)

>  <Reading>
0.124

$$$$

Q: soluble fraction (log2) lookup needed for HMSMPDERMLTSWMMARVKAAGKTMTRDAWNEFFERSNDSMDHMDMEMEKLLSYVYDKDGITLEDVEA , thanks.
Ans: -0.381

Q: soluble fraction (log2) lookup needed for HMTETSKLTDAKQLLESILSSGEVSYKDIISAAEEYEIGKRTLMSAKALLSIESIKKTDGWYWTLPH , thanks.
Ans: -0.0778

Q: soluble fraction (log2) lookup needed for HMLPKAERREQLMAVARSVFAEQGYHTTSMEIIAETAGVSKPLLYQHFPSKLDLYLALLDAGID , thanks.
Ans: -1.1

###

Consider the following sequences and their measured soluble fraction (log2) readings.
Test: soluble fraction after stress (log2 fold change); higher = more stays soluble; pooled small domains, quantitative proteomics
Conditions: stress: pH 4

// known answers, use as guide
>  <Seq Text>
HMKYGPSTVAVLTVVRESEMGAFLDAETGRTNDDILLHKTQQTEPVHIGDQVKVFLYLDPKHRLTASMRVP

>  <soluble fraction (log2)>
-1.24

$$$$
>  <Seq Text>
HMVFSNLGSRGEEVRQIQTKLKELGYLQGNVDGIYGNQTKQAVTAFQRDHGLSADGIAGEKTLAALGIG

>  <soluble fraction (log2)>
0.105

$$$$
>  <Seq Text>
HMHVYQSLVTDRVVPGGGYRTTEAILSTEAWRNTLLEQAKRELIGVRNKYASLTELAKVWTAIDTVT

>  <soluble fraction (log2)>
-0.249

$$$$

Would you kindly look at the next entry?
Q: soluble fraction (log2) lookup needed for HMSKSKSEIDKDPHFWSSLFQRIGEGESLRKIAKDSKIPKSTLWAWIRNDPQLALRYSEAQQ , thanks.
Ans: 0.00982

###

Test: soluble fraction after stress (log2 fold change); higher = more stays soluble; pooled small domains, quantitative proteomics
Details: stress: pH 4
The threshold is inclusive: soluble fraction (log2) of exactly -0.5 counts as T; values below receive F.

Solved entries (count: 6):
>  <Seq Text>
HMGELDFYEEMRDDYLTGKIWNVGEIVEAKGMIGEIVRKGTNYISFVTDDNKVHKAWLHEIKL

>  <Class>
F

$$$$
>  <Seq Text>
HMRAVEGKRLKRLLRTNLIAIERDQILQYPLRKRPLAIVTRAVRATNPDAVIVNDAGDDVFARALDVLLAS

>  <Class>
F

$$$$
>  <Seq Text>
HMEVIDQLFKIALTLFDIDKGENNSISQDLVDKVIEQMKTTAPTFIKRELSEDEVKKLRFEIQNHFNV

>  <Class>
T

$$$$
>  <Seq Text>
HMIHQIPVNVQKIRQIIGINLNENDYLNYLAKLGFVIDEGLIIVPSFRSDVKTQNDLAEEIARV

>  <Class>
T

$$$$
>  <Seq Text>
HMSIQMPDLSITPVTDAKKKIESLQLQYKEVGEYNDSVIAGYVIRTEPASGSYLNEDEEVIIYVSKG

>  <Class>
F

$$$$
>  <Seq Text>
HMSRGTLFVDVRGAVAKPGVYELPEKSRVFQAVEAAGGLLPEALERLVNQAAELTDGQQVYIPFEGEE

>  <Class>
T

$$$$

Q: Answer whether soluble fraction (log2) of HMSFNGTILSNYQKTYPNLAKFTYDQANDALVYEGNFIKLNGYGLSRIDPVFFNMNPDEIFIFIKNG is greater than or equal to -0.5.
Ans: F

Q: Answer whether soluble fraction (log2) of HMFYNDLINFDVFRDSRKIGKIENINSRLPQPVFEIMYDSRIVLIPIHEDFIRKIDKVNNIIYLDIPDGLL is greater than or equal to -0.5.
Ans: F

###

Consider the following sequences and their measured soluble fraction (log2) readings.
Assay: soluble fraction after stress (log2 fold change); higher = more stays soluble; pooled small domains, quantitative proteomics
Conditions: stress: pH 4
Enter the number alone.

>  <Seq Text>
HMRLYTQDVAVLNRDVIQGEVITSDMVTTVNVHKRTVPTGALNLSEIPGNVAKFNIPASIPITASMVTK

>  <soluble fraction (log2)>
-0.171

$$$$
>  <Seq Text>
HMVADEGELLAIAREVVAANPKVFEDWKAGKQSAAQWFVGQIMKRTRGRANPQLALKLVTQALEEHAR

>  <soluble fraction (log2)>
-0.21

$$$$
>  <Seq Text>
HMGLSNYEFNSISQTVKEKLEQGPLTLKALVDETAHLFAEDKVVSVVQWLIDQRDLAYDDHGLLQWKG

>  <soluble fraction (log2)>
-0.871

$$$$
>  <Seq Text>
HMAKIEVENLEETILENLKANNGFMPYNDKTSPEEIYEVFHVSKKHFKNSLGGLMKKGLIFQNEKGTKL

>  <soluble fraction (log2)>
-0.444

$$$$

Q: soluble fraction (log2) lookup needed for HMEIEYFDDEELDAYKGRKSDSYTDEEAAQFAEVLYTMRPSEVKDWTASLTLRGISMPDQIKDEAIMLME , thanks.
Ans: -0.984

Q: soluble fraction (log2) lookup needed for HMDRVDGWLHDGKLYLRVVDYKTGKKSFDLAELRYGLGLQMLLYLFTLKEEGQMLFGGHEIVPAGVL , thanks.
Ans: -0.282

Q: soluble fraction (log2) lookup needed for HMDIVEIYVGEEDGERIDSYLAQELNNVSRSYVQGLIKNQLITVNGNHVKPKHIVKEGEHIIVNIPPPKV , thanks.
Ans: -0.108

Q: soluble fraction (log2) lookup needed for HMGTAESIRLFLSSGLIKGVGEALAGRIVDTFGTDTFDIIENHPELLAGVKGISHRLAMSIYESFSQHIGV , thanks.
Ans: -0.951

Q: soluble fraction (log2) lookup needed for HMIDIGSKIKKLRSKKSIEIGKKYTGAMLANELGISRSYLGDIESGRTVPNEIILGKIADIFDVDIYELIG , thanks.
Ans: -0.405

Q: soluble fraction (log2) lookup needed for HMRSSAATMFGRIALKNKLVDEATLKKVMSELPAGADLGAVLVKQGLISEQHAEAIQKKITAHMKSAP , thanks.
Ans: 0.0511

Q: soluble fraction (log2) lookup needed for HMLTSIDQMLKLAMPDSDITVSKMNGLILLTGTVKAPEDAAEAERLVQAFSAPPPGQPPVTVVSRLRTA , thanks.
Ans: 0.22

Q: soluble fraction (log2) lookup needed for HMEEFIEHTVEKGEFLSAIIVAYNQHLKSKGFKSITTRDILNANPKLKPELIQVGQKIKIPRRKK , thanks.
Ans: -0.0958

Q: soluble fraction (log2) lookup needed for HMFANQLLLTRFDLNYIKSDVLSRQIDVLGIPIKKLTIEANNKSIWLQGTSQSLSKVRELIGIIDIRENA , thanks.
Ans: -1.73

Q: soluble fraction (log2) lookup needed for HMKPDDDMLLKILTKLFIQKQFVINSKDIFQYILKNTNRTYENIINIVNRLDTLSIEKKRQLTIPLIKEI , thanks.
Ans: -0.555
